- assay.overview: Cytotoxicity that caused a 50% reduction in absorbance at 490 nm in normal human fibroblast (NHF) cells using MTS assay.
- Type: functional, cell-based
Each entry below carries its reported EC50.
readout.type: EC50

compound	readout.type	result.value
Nc1ncnc2c1c(=O)ccn2[C@@H]1O[C@H](CO)[C@@H](O)[C@H]1O (stereo in doubt; 1b-L)	EC50	> 100000 nM
Nc1ncnc2c1c(=O)ccn2[C@@H]1O[C@H](CO)[C@@H](O)[C@H]1O (stereo in doubt; 1b)	EC50	80 nM

###

- assay.overview: Cytotoxicity that caused a 50% reduction in absorbance at 490 nm in human prostate cancer HTB-81 cells using MTS assay.
- Format: functional, cell-based
- measurement.conditions: Homo sapiens, HTB-81
readout.type: EC50 (µM)

compound	readout.type	comparison.symbol	result.value
C#C[C@@]1(O)[C@@H](CO)OC(n2ccc(=O)c3c(N)ncnc32)[C@@H]1O (some centres undefined)	EC50	=	0.68
C=C1[C@@H](O)[C@H](n2ccc(=O)c3c(N)ncnc32)O[C@@H]1CO	EC50	=	31.1
C=C1[C@H](n2ccc(=O)c3c(N)ncnc32)O[C@H](CO)[C@H]1O	EC50	>	100
C#C[C@]1(O)[C@@H](CO)OC(n2ccc(=O)c3c(N)ncnc32)[C@@H]1O (some centres undefined)	EC50	>	100
Nc1ncnc2nccc(O)c12	EC50	>	100
C[C@@H](O)[C@H]1O[C@@H](n2ccc(=O)c3c(N)ncnc32)[C@H](O)[C@@H]1O.C[C@H](O)[C@H]1O[C@@H](n2ccc(=O)c3c(N)ncnc32)[C@H](O)[C@@H]1O	EC50	=	10
N=c1ncn(C2OC(CO)[C@@H](O)[C@@H]2O)c2nccc(O)c12 (some centres undefined)	EC50	>	100
Nc1ncnc2c1c(=O)ccn2C1O[C@H](CO)[C@@H](O)[C@@H]1O (some centres undefined)	EC50	=	21.9
C[C@@]1(O)[C@@H](CO)OC(n2ccc(=O)c3c(N)ncnc32)[C@@H]1O (some centres undefined)	EC50	=	4.44
